Every entry's value here was drawn from ChEMBL document CHEMBL2016472.

- PROTOCOL: Volume of distribution at steady state in rat at 5 mg/kg, iv
- Assay type: ADME, organism-based
- Set-up: dose 5 mg/kg, route intravenous
- TEST_CONDITIONS: in vivo, read-out: Vdss
TEST_READOUT: Vd (L/kg)

| INPUT_SMILES | RESULT_VALUE |
| --- | --- |
| Nc1ncc(-c2cc(Nc3cnc4ccccc4c3)nc(N3CCOCC3)n2)c(C(F)(F)F)n1 | 2.8 |
| Nc1ncc(-c2cc(N3CCOCC3)nc(N3CCOCC3)n2)c(=O)[nH]1 | 2.8 |
| Nc1cc(C(F)(F)F)c(-c2cc(N3CCOCC3)nc(N3CCOCC3)n2)cn1 | 3.1 |

* * *

- PROTOCOL: Volume of distribution at steady state in beagle dog at 1 mg/kg, iv
- Assay type: ADME, organism-based, Canis lupus familiaris
- Set-up: dose 1 mg/kg, route intravenous
- TEST_CONDITIONS: in vivo, read-out: Vdss
TEST_READOUT: Vd (L/kg)
Write it as a number; the unit L/kg goes unstated.

molecule `Nc1cc(C(F)(F)F)c(-c2cc(N3CCOCC3)nc(N3CCOCC3)n2)cn1` , Vd observed: 3.1

* * *

- PROTOCOL: Drug uptake in tumor in nu/nu mouse xenografted with human A2780 cells at 100 mg/kg, po
- Assay type: ADME, organism-based, Neoplasm
- Parameters: dose 100 mg/kg, route oral
- TEST_CONDITIONS: in vivo, read-out: Drug uptake
TEST_READOUT: concentration (nM)
Numbers only here, please. The scale is nM.

Value of concentration reported for the molecule Nc1cc(C(F)(F)F)c(-c2cc(N3CCOCC3)nc(N3CCOCC3)n2)cn1 [BUPARLISIB] is 2000

* * *

- PROTOCOL: Oral bioavailability in rat at 20 mg/kg
- Type: ADME, organism-based
- TEST_CONDITIONS: in vivo
TEST_READOUT: bioavailability (%)

Known results for compounds:
| INPUT_SMILES | RESULT_VALUE |
| --- | --- |
| N#Cc1cc(N)ncc1-c1cc(N2CCOCC2)nc(N2CCOCC2)n1 | 98 |
| Nc1cc(C(F)(F)F)c(-c2cc(N3CCOCC3)nc(N3CCOCC3)n2)cn1 | 50 |
| Nc1cc(Cl)c(-c2cc(N3CCOCC3)nc(N3CCOCC3)n2)cn1 | 69 |

(P) Nc1ncc(-c2cc(N3CCOCC3)nc(N3CCOCC3)n2)c(=O)[nH]1
(Q) Nc1ncc(-c2cc(N3CCOCC3)nc(N3CCOCC3)n2)c(C(F)(F)F)n1
Input line: Between the two listed entries P and Q , which has its bioavailability at the higher number? Give the label under which the chosen entry appears.
Output line: Q
(Q: 83%, P: 56%)
